The source made the active and inactive calls.
Glyceraldehyde-3-phosphate dehydrogenase (Homo sapiens) IC50 data
Sequence (P04406 whole entry): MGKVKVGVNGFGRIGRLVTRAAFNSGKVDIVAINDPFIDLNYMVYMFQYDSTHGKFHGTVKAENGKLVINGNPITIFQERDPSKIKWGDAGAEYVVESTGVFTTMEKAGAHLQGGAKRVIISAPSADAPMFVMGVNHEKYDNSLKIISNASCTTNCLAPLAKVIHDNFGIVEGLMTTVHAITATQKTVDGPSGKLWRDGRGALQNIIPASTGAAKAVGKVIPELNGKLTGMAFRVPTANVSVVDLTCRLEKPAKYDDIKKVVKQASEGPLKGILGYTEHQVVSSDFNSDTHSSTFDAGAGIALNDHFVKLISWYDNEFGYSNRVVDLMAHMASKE

> print(dat)
                                   compound                              assay.system           readout.value
1  O=S(=O)(Nc1ccc2ccccc2c1)c1ccc(Br)cc1OC(F)(F)F  Glyceraldehyde-3-phosphate dehydrogenase (Homo sapiens)  > 10 µM (inconclusive)

Prompt line: State measured IC50 of the compound CCOC(=O)c1ccc2c(c1)C1C=CCC1C(C(=O)O)N2 (stereo not given) with Glyceraldehyde-3-phosphate dehydrogenase (Homo sapiens).
Response line: 95.4 µM (active)

Prompt line: State measured IC50 of the compound "Cc1ccoc1C(=O)Nc1ccc(CC(=O)O)cc1" with Glyceraldehyde-3-phosphate dehydrogenase (Homo sapiens).
Response line: > 100 µM (not active)

Prompt line: State measured IC50 of the compound "O=C1C(Cl)=C(N2CCCC2)C(=O)N1c1ccc(Cl)c(Cl)c1" with Glyceraldehyde-3-phosphate dehydrogenase (Homo sapiens).
Response line: > 100 µM (not active)

Prompt line: State measured IC50 of the compound "CC(C)CSc1nnc(N)[nH]1" with Glyceraldehyde-3-phosphate dehydrogenase (Homo sapiens).
Response line: > 100 µM (not active)

---

Assay: Luminescence Cell-Based Dose Response HTS to Identify Inhibitors of 5'UTR Stem-Loop Driven Prion Protein mRNA Translation in H4 Neuroglioblastoma Cells. [Related pubchem assays: 1827 (Project Summary), 1813 (Primary HTS)]
Type: functional
Active and inactive are the calls of the source.
parameter: EC50

Solved entries:
> print(dat)
                              smiles.record      readout.value
1             C(=N\Nc1ccc2nncn2n1)/c1ccccn1   11.8 µM (active)
2  CCOc1ccc(CC(=O)Nc2ccc(NC(=O)c3ccco3)cc2)cc1OCC   6.05 µM (active)
3   CSc1nc(N(C)NC(=O)c2ccc(F)cc2)c2ccccc2n1  0.258 µM (active)
4  O=C(N/N=C/c1cccs1)c1cc(-c2ccncc2)nc2ccccc12  0.294 µM (active)

Prompt line: Tell me EC50 reported for "COC(=O)Nc1ccc(S(=O)(=O)N2CCCc3ccccc32)cc1"
Response line: 7.32 µM (active)

Prompt line: Tell me EC50 reported for "COc1ccc(OC)c(-c2cc(C(=O)Nc3c(C)nn(Cc4ccc(Cl)cc4)c3C)no2)c1"
Response line: 19.5 µM (active)

Prompt line: Tell me EC50 reported for "COc1ccccc1C(=O)NCC(=O)N/N=C/c1cc(Br)ccc1OC(=O)/C=C\c1ccco1"
Response line: 12 µM (active)

---

Target: Heat shock factor protein 1 (Mus musculus)
Sequence (P38532 whole entry): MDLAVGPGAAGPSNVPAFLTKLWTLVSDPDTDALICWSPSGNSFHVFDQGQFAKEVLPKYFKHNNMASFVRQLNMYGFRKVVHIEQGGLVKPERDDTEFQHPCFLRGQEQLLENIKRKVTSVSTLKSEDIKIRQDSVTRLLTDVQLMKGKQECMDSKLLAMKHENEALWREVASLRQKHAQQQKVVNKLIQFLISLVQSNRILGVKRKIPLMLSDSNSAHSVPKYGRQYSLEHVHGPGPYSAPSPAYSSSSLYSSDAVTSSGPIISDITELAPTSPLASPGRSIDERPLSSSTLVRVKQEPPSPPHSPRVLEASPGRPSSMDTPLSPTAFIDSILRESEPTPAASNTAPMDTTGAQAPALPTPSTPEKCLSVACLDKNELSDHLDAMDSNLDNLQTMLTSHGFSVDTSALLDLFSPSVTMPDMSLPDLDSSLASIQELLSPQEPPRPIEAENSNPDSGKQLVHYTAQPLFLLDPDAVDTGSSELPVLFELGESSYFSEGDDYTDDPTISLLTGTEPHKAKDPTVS
Experiment: inhibition of MG132-induced HSE-luciferase signal, confirmation, cell-based, NIH3T3, luminescence, dose retest (AID 2382);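 note: NIH3T3 fibroblasts with HSF1-driven luciferase reporter stressed by proteasome inhibitor MG132; luminescence from HSF1-driven luciferase expression after 8 hours of MG132 stress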
Type: functional
Active and inactive are the calls of the source.
Measured EC50, listed per entry for reference.

> print(dat)
                                   compound                              assay.system          readout.value
1  CN(C(=O)CN1C(=O)S/C(=C\c2ccccc2)C1=O)C1CCS(=O)(=O)C1 (configuration not stated)  Heat shock factor protein 1 (Mus musculus)  > 195 µM (not active)
2  Cc1ccc(-c2nc(-c3cccnc3)sc2CC(=O)Nc2ccc3nc(C)sc3c2)cc1  Heat shock factor protein 1 (Mus musculus)  > 195 µM (not active)
3  CCOC(=O)Cn1c(=O)oc2cc(S(=O)(=O)NCCC(C)C)ccc21  Heat shock factor protein 1 (Mus musculus)  > 195 µM (not active)
4  O=C1c2ccccc2C(Nc2ccc3c(c2)OCCO3)N1c1ccc(Cl)cn1 (configuration not stated)  Heat shock factor protein 1 (Mus musculus)  > 195 µM (not active)
5  NS(=O)(=O)c1cc2c(cc1Cl)NCNS2(=O)=O [HYDROCHLOROTHIAZIDE]  Heat shock factor protein 1 (Mus musculus)  > 195 µM (not active)
6  COc1cc(/C=N/N2CCN(Cc3ccccc3)CC2)cc(OC)c1OC(C)=O  Heat shock factor protein 1 (Mus musculus)  > 195 µM (not active)
7              C=CCNc1cc(C)oc(=O)c1C(=O)CCC  Heat shock factor protein 1 (Mus musculus)  > 195 µM (not active)
8       CSc1cccc(NS(=O)(=O)c2cc(Br)cnc2N)c1  Heat shock factor protein 1 (Mus musculus)  > 195 µM (not active)

Prompt line: Tell me EC50 reported for "Cc1ccccc1C(=O)NC[C@@H]1CCCN2CCCC[C@H]12"
Response line: 18.6 µM (active)

Prompt line: Tell me EC50 reported for "O=c1c(/C=N\NS(=O)(=O)c2ccccc2)coc2ccc(Cl)cc12"
Response line: 44.5 µM (active)

Prompt line: Tell me EC50 reported for "O=C(CSC(=S)N1CCCCC1)Nc1ncc2c(n1)CCCC2=O"
Response line: > 195 µM (not active)

Prompt line: Tell me EC50 reported for COC1CCCN(C(=O)c2ccc(OC3CCN(CCc4ccccc4)CC3)cc2)C1 (configuration not stated)
Response line: > 195 µM (not active)

Prompt line: Tell me EC50 reported for "Nc1nc(CSC(=S)N2CCCCC2)nc(Nc2ccccc2)n1"
Response line: > 195 µM (not active)

Prompt line: Tell me EC50 reported for "CCN1CCN(CCCNc2[nH]cnc3ncnc2-3)CC1"
Response line: > 195 µM (not active)

Prompt line: Tell me EC50 reported for "Cc1nc(NCc2ccco2)c2c(C)c(C)sc2n1"
Response line: 1.22 µM (active)
